Reference source: paper PMC10778824

Notes on MIC obtained with Staphylococcus aureus ATCC6538.

What reported MIC corresponds to Cc1cc(S(=O)(=O)Nc2ccc(C(=O)/C=C/c3ccc(Cl)cc3)cc2)c(Cl)cc1Cl on Staphylococcus aureus ATCC6538? > 500 µg/mL

What reported MIC corresponds to Cc1cc(S(=O)(=O)Nc2ccc(C(=O)/C=C/c3ccc(Br)cc3)cc2)c(Cl)cc1Cl on Staphylococcus aureus ATCC6538? > 500 µg/mL

What reported MIC corresponds to CC1(C)S[C@@H]2[C@H](NC(=O)[C@H](N)c3ccccc3)C(=O)N2[C@H]1C(=O)O [ampicillin, reference compound] on Staphylococcus aureus ATCC6538? 0.08 µg/mL

What reported MIC corresponds to Cc1cc(S(=O)(=O)Nc2ccc(C(=O)/C=C/c3ccc(F)cc3)cc2)c(Cl)cc1Cl on Staphylococcus aureus ATCC6538? > 500 µg/mL

What reported MIC corresponds to Cc1ccc(/C=C/C(=O)c2ccc(NS(=O)(=O)c3cc(C)c(Cl)cc3Cl)cc2)cc1 on Staphylococcus aureus ATCC6538? > 500 µg/mL

What reported MIC corresponds to Cc1cc(S(=O)(=O)Nc2ccc(C(=O)/C=C/c3ccccc3)cc2)c(Cl)cc1Cl on Staphylococcus aureus ATCC6538? > 500 µg/mL

###

Notes on MIC obtained with Campylobacter jejuni ZMF.

Quick one: MIC of Cc1cc(S(=O)(=O)Nc2ccc(C(=O)/C=C/c3ccccc3)cc2)c(Cl)cc1Cl ? > 500 µg/mL

Quick one: MIC of CC1(C)S[C@@H]2[C@H](NC(=O)[C@H](N)c3ccccc3)C(=O)N2[C@H]1C(=O)O [ampicillin, reference compound] ? 32 µg/mL

Quick one: MIC of Cc1cc(S(=O)(=O)Nc2ccc(C(=O)/C=C/c3ccc(Cl)cc3)cc2)c(Cl)cc1Cl ? > 500 µg/mL

Quick one: MIC of Cc1cc(S(=O)(=O)Nc2ccc(C(=O)/C=C/c3ccc(Br)cc3)cc2)c(Cl)cc1Cl ? > 500 µg/mL

Quick one: MIC of Cc1ccc(/C=C/C(=O)c2ccc(NS(=O)(=O)c3cc(C)c(Cl)cc3Cl)cc2)cc1 ? > 500 µg/mL

Quick one: MIC of Cc1cc(S(=O)(=O)Nc2ccc(C(=O)/C=C/c3ccc(F)cc3)cc2)c(Cl)cc1Cl ? > 500 µg/mL

###

- System: gastric adenocarcinoma AGS
- PROTOCOL_DESCRIPTION: MTT assay, AGS cells
- Format: cell-based, human
- ASSAY_CONDITIONS: SI = IC50 noncancer cells/IC50 cancer cells, in relation to human neonatal fibroblasts
Rule for this label: 1.0 means selectivity index AGS is less than 20; 0.0 means selectivity index AGS is at least 20.

Please check: selectivity index AGS for Cc1cc(S(=O)(=O)Nc2ccc(C(=O)/C=C/c3ccc(Br)cc3)cc2)c(Cl)cc1Cl , strictly under 20 or not? 0.0

Please check: selectivity index AGS for Cc1cc(S(=O)(=O)Nc2ccc(C(=O)/C=C/c3ccc(F)cc3)cc2)c(Cl)cc1Cl , strictly under 20 or not? 1.0

Please check: selectivity index AGS for Cc1cc(S(=O)(=O)Nc2ccc(C(=O)/C=C/c3ccccc3)cc2)c(Cl)cc1Cl , strictly under 20 or not? 0.0

Please check: selectivity index AGS for Cc1cc(S(=O)(=O)Nc2ccc(C(=O)/C=C/c3ccc(Cl)cc3)cc2)c(Cl)cc1Cl , strictly under 20 or not? 1.0

Please check: selectivity index AGS for Cc1ccc(/C=C/C(=O)c2ccc(NS(=O)(=O)c3cc(C)c(Cl)cc3Cl)cc2)cc1 , strictly under 20 or not? 1.0

###

- Tested on: cervical cancer HeLa
- PROTOCOL_DESCRIPTION: MTT assay, HeLa cells
- Type: cell-based, human
- ASSAY_CONDITIONS: SI = IC50 noncancer cells/IC50 cancer cells, in relation to human neonatal fibroblasts
MEASURE: selectivity index HeLa
Form field (numeric): enter value without unit.

What reported selectivity index HeLa corresponds to Cc1ccc(/C=C/C(=O)c2ccc(NS(=O)(=O)c3cc(C)c(Cl)cc3Cl)cc2)cc1 on cervical cancer HeLa? 3.50

What reported selectivity index HeLa corresponds to Cc1cc(S(=O)(=O)Nc2ccc(C(=O)/C=C/c3ccc(F)cc3)cc2)c(Cl)cc1Cl on cervical cancer HeLa? 3.12

What reported selectivity index HeLa corresponds to Cc1cc(S(=O)(=O)Nc2ccc(C(=O)/C=C/c3ccc(Br)cc3)cc2)c(Cl)cc1Cl on cervical cancer HeLa? 4.51

What reported selectivity index HeLa corresponds to Cc1cc(S(=O)(=O)Nc2ccc(C(=O)/C=C/c3ccc(Cl)cc3)cc2)c(Cl)cc1Cl on cervical cancer HeLa? 4.72

What reported selectivity index HeLa corresponds to Cc1cc(S(=O)(=O)Nc2ccc(C(=O)/C=C/c3ccccc3)cc2)c(Cl)cc1Cl on cervical cancer HeLa? 3.34

###

- System: cervical cancer HeLa
- PROTOCOL_DESCRIPTION: MTT assay, HeLa cells
- Assay type: cell-based, human
- ASSAY_CONDITIONS: Homo sapiens, HeLa; MTT, 24 h treatment
Rule for this label: Fulfilled means IC50 is less than 6 µg/mL; Not fulfilled means IC50 is at least 6 µg/mL.

Please check: IC50 for Cc1cc(S(=O)(=O)Nc2ccc(C(=O)/C=C/c3ccc(Cl)cc3)cc2)c(Cl)cc1Cl , strictly under 6 µg/mL or not? Not fulfilled

Please check: IC50 for Cc1ccc(/C=C/C(=O)c2ccc(NS(=O)(=O)c3cc(C)c(Cl)cc3Cl)cc2)cc1 , strictly under 6 µg/mL or not? Not fulfilled

Please check: IC50 for Cc1cc(S(=O)(=O)Nc2ccc(C(=O)/C=C/c3ccccc3)cc2)c(Cl)cc1Cl , strictly under 6 µg/mL or not? Not fulfilled

Please check: IC50 for Cc1cc(S(=O)(=O)Nc2ccc(C(=O)/C=C/c3ccc(F)cc3)cc2)c(Cl)cc1Cl , strictly under 6 µg/mL or not? Not fulfilled

Please check: IC50 for Cc1cc(S(=O)(=O)Nc2ccc(C(=O)/C=C/c3ccc(Br)cc3)cc2)c(Cl)cc1Cl , strictly under 6 µg/mL or not? Fulfilled

###

- EXPERIMENTAL_SYSTEM: neutrophil elastase (Sus scrofa, UniProt P00772)
- Construct: purchased Sigma Chemical Co. (St. Louis, MO, USA)
- Sequence (P00772 27-266): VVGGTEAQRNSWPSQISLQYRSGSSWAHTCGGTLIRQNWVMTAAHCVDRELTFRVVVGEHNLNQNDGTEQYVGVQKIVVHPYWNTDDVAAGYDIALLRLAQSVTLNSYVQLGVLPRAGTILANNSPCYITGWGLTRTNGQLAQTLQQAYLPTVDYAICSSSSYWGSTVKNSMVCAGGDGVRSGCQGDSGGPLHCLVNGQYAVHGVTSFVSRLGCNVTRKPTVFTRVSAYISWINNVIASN
- PROTOCOL_DESCRIPTION: Elastase assay (SANA substrate)
- Type: biochemical, porcine
- ASSAY_CONDITIONS: Tris-HCl pH 8.0, SANA substrate; read-out: neutrophil elastase inhibition IC50 (converted)
Rule for this label: met means IC50 is less than 100 µM; not met means IC50 is at least 100 µM.

Please check: IC50 for Cc1cc(S(=O)(=O)Nc2ccc(C(=O)/C=C/c3ccccc3)cc2)c(Cl)cc1Cl , strictly under 100 µM or not? not met

Please check: IC50 for Cc1ccc(/C=C/C(=O)c2ccc(NS(=O)(=O)c3cc(C)c(Cl)cc3Cl)cc2)cc1 , strictly under 100 µM or not? met

Please check: IC50 for Cc1cc(S(=O)(=O)Nc2ccc(C(=O)/C=C/c3ccc(Br)cc3)cc2)c(Cl)cc1Cl , strictly under 100 µM or not? not met

Please check: IC50 for Cc1cc(S(=O)(=O)Nc2ccc(C(=O)/C=C/c3ccc(F)cc3)cc2)c(Cl)cc1Cl , strictly under 100 µM or not? not met

Please check: IC50 for Cc1cc(S(=O)(=O)Nc2ccc(C(=O)/C=C/c3ccc(Cl)cc3)cc2)c(Cl)cc1Cl , strictly under 100 µM or not? met
